pIC50: −log10 of the molar value.
Endpoint summary: pIC50, system: Serine/threonine-protein kinase ATR (Homo sapiens, UniProt Q13535), multiple sources combined.
Sequence (Q13535 whole entry): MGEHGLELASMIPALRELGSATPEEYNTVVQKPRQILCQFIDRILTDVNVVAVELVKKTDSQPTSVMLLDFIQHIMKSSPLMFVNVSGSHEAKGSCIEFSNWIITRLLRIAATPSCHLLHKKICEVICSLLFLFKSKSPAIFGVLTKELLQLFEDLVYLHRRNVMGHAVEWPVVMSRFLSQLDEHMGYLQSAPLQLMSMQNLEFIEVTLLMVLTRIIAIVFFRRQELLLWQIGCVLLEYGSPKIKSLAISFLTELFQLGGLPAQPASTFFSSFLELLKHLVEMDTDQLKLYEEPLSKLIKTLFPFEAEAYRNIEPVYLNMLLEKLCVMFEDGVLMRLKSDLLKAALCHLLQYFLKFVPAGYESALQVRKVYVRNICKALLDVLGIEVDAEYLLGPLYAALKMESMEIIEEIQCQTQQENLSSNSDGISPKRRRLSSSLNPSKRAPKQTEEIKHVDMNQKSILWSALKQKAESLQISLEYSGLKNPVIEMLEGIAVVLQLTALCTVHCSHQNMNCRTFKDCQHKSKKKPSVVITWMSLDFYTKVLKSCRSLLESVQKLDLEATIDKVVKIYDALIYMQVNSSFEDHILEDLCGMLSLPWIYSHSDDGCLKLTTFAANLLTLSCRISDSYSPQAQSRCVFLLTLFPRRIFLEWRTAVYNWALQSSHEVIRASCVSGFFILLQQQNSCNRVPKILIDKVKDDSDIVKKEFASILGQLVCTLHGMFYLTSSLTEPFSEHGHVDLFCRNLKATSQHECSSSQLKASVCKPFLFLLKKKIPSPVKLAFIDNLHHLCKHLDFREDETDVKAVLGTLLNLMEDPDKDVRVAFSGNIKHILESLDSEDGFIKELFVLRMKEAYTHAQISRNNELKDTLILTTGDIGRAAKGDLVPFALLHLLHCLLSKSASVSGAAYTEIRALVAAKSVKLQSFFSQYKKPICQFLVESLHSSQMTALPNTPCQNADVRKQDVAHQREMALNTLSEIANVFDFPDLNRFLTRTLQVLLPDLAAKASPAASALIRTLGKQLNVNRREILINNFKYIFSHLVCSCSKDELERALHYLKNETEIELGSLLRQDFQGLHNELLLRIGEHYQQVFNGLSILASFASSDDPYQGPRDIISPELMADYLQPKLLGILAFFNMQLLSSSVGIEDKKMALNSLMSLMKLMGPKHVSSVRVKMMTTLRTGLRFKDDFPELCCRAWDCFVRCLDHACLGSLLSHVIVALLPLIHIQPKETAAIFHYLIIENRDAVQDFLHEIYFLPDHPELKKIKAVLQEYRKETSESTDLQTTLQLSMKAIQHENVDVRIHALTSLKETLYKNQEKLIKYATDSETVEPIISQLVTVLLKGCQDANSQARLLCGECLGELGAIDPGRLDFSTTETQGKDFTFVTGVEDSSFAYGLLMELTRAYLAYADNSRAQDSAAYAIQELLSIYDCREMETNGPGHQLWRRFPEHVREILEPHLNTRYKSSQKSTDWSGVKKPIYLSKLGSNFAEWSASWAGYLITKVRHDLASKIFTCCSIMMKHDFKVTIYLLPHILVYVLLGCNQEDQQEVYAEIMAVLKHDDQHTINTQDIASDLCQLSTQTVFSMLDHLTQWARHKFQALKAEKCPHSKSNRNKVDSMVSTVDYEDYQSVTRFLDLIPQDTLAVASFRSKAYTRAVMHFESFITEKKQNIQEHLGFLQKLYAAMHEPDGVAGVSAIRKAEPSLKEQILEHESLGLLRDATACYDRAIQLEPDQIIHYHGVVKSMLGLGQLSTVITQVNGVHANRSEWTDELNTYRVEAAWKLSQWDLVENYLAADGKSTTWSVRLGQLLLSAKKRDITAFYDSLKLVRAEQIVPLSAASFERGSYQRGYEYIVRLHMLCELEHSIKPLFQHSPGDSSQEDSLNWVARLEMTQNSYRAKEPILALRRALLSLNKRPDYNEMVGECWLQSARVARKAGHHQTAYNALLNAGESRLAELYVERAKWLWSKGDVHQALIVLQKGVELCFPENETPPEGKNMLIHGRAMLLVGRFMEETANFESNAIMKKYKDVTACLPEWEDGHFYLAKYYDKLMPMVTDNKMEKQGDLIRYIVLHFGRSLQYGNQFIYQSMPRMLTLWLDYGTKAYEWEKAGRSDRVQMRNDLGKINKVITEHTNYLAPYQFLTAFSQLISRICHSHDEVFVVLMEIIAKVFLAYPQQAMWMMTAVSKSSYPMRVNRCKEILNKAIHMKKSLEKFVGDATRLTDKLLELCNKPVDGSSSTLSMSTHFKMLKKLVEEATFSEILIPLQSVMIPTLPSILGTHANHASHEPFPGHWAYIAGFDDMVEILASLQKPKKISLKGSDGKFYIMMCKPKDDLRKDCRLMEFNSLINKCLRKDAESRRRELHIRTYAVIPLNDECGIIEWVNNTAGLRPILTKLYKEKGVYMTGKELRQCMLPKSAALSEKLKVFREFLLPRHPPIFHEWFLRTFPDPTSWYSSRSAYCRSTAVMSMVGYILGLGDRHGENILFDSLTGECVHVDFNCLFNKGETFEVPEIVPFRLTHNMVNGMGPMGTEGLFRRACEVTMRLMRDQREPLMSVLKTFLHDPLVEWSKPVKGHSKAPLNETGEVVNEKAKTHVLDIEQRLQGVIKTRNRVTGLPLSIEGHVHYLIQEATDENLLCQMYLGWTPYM

These solved cases illustrate the format of a correct answer.
>  <MOLECULAR STRING>
CCN1CCN(CC(=O)Nc2ccc(-c3cccc4c(=O)cc(N5CCOCC5)oc34)c3sc4ccccc4c23)CC1

>  <RESULT>
< 5.00

$$$$
>  <MOLECULAR STRING>
CN(C)CCCOc1ccc(-c2ccc3nnc4c(c3c2)n(C2CCOCC2)c(=O)n4C)cn1

>  <RESULT>
< 4.52

$$$$

Lookup: Please look at this compound and report its pIC50: COc1ccc(C(=O)N2CCc3nc(-c4cccc5[nH]ccc45)nc(N4CCOC[C@H]4C)c3C2)cc1
Found: < 5.96

Lookup: Return value of pIC50 for input CCC(=O)N1CCc2nc(-c3cccc4[nH]ccc34)nc(N3CCOC[C@H]3C)c2C1 , no commentary.
Found: < 5.96

Lookup: Could you please provide reported pIC50 for CO[C@H]1C[C@@H](n2c(=O)n(C)c3cnc4cc(F)c(-c5ccc(NC(=O)CCCN(C)C)nc5)cc4c32)C1 ? Thanks!
Found: < 4.52
